- Measured on: UniProtKB Q12809
- Sequence (Q12809 whole entry): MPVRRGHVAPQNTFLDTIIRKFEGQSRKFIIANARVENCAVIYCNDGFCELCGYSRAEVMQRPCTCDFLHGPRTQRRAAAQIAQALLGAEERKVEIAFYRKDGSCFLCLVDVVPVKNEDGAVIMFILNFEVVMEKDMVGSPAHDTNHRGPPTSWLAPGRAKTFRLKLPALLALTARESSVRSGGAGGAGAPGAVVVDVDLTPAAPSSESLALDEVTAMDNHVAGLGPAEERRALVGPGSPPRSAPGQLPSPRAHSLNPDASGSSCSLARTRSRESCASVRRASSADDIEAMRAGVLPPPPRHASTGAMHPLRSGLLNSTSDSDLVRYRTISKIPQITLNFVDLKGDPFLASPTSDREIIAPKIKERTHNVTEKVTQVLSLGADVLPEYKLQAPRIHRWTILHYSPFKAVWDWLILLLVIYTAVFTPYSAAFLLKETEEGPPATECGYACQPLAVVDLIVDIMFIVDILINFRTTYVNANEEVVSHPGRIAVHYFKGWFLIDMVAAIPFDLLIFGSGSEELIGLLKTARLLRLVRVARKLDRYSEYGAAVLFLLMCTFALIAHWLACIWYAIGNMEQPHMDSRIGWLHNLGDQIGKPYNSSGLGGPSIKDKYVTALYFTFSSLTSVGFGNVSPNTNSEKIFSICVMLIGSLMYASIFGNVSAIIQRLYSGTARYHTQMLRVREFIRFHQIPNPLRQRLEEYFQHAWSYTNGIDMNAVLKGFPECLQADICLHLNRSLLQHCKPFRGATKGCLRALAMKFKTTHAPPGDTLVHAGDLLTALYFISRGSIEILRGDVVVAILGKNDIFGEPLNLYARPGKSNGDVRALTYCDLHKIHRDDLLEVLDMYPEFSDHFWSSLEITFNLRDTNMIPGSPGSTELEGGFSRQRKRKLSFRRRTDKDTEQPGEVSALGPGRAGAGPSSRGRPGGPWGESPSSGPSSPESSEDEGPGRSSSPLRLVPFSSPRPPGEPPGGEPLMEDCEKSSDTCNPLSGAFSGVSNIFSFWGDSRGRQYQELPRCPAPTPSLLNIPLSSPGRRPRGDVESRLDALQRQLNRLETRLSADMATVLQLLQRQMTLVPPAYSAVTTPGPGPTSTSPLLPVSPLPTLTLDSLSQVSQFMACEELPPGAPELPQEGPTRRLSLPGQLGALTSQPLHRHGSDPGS
pIC50: −log10 of the molar value.
Below, each of the compounds is paired with its reported pIC50 value.
Endpoint: pIC50

- CC#Cc1ccc2nc(OC)c(C(c3ccccc3)C(O)(CCN(C)C)c3cccc4ccccc34)cc2c1 (stereo unspecified): 5.10
- COc1nc2ccc(Cl)cc2cc1C(c1ccccc1)C(O)(CCN(C)C)c1cccc2ccccc12 (stereo unspecified): 5.16
- COc1nc2ccc(CO)cc2cc1C(c1ccccc1)C(O)(CCN(C)C)c1cccc2ccccc12 (stereo unspecified): 5.00
- COc1nc2ccc(C(=O)O)cc2cc1C(c1ccccc1)C(O)(CCN(C)C)c1cccc2ccccc12 (stereo unspecified): 5.00
- COc1nc2ccc(CN(C)C)cc2cc1C(c1ccccc1)C(O)(CCN(C)C)c1cccc2ccccc12 (stereo unspecified): 5.32
- COc1nc2ccc(CC(C)=O)cc2cc1C(c1ccccc1)C(O)(CCN(C)C)c1cccc2ccccc12 (stereo unspecified): 5.00
- COc1nc2ccc(C(=O)N(C)C)cc2cc1C(c1ccccc1)C(O)(CCN(C)C)c1cccc2ccccc12 (stereo unspecified): 5.20
- CO/N=C/c1ccc2nc(OC)c([C@@H](c3ccccc3)[C@](O)(CCN(C)C)c3cccc4ccccc34)cc2c1: 5.66
- COc1nc2ccc(CN)cc2cc1C(c1ccccc1)C(O)(CCN(C)C)c1cccc2ccccc12 (stereo unspecified): 5.77
- COc1nc2ccc(/C=N/O)cc2cc1C(c1ccccc1)C(O)(CCN(C)C)c1cccc2ccccc12 (stereo unspecified): 5.46
- COc1nc2ccccc2cc1C(c1ccccc1)C(O)(CCN(C)C)c1cccc2ccccc12 (stereo unspecified): 5.80

Cited source for all entries: ChEMBL document CHEMBL4130520
